assay: Solubility of the compound in Japanese pharmacopoeia first fluid at pH 1.2 at 10 mM after 12 hrs; format: physicochemical
Recorded solubility at 12 h, 10000 µM by entry
Unit µg/mL implied. Number only.

[Q] May I ask what solubility at 12 h, 10000 µM has been recorded for O=C(O)c1ccc(CNC(=O)c2ccc(Cl)s2)c(NC(=O)c2nc3c(s2)COCC3)c1 ?
[A] 2

[Q] Any idea what solubility at 12 h, 10000 µM was measured for CC(C)N1CCc2nc(C(=O)Nc3cc(C(=O)O)ccc3CNC(=O)c3ccc(Cl)s3)sc2C1 ?
[A] 49

[Q] // solubility at 12 h, 10000 µM lookup, key: CC(C)N1CCc2nc(C(=O)Nc3c(CNC(=O)c4ccc(Cl)s4)cccc3C(=O)O)sc2C1
[A] 1000

[Q] Need solubility at 12 h, 10000 µM, item CN1CCc2nc(C(=O)Nc3ccc(C(=O)O)cc3CNC(=O)c3ccc(Cl)s3)sc2C1
[A] 72
